The following sequences are listed with their measured shrunken log2 fold change values.
test system: Escherichia coli TOP10; assay: shrunken log2 fold change of peptide-encoding DNA abundance (4.5 h post-induction vs induction); higher = less antimicrobial activity (less host growth inhibition); details: time post-induction: 4.5 h; library: site-saturation at positions 5, 18, 19, 20

seq_text | shrunken log2 fold change
RRIRKRPPRLPRPRPRPIKNPRP | -0.188

Turning now to a further record.
Query :: Report the value of shrunken log2 fold change obtained on Escherichia coli TOP10 for `RRIRRRPPRLPRPRPRPSMYPRP` .
Result :: -0.345

----------
The following sequences are listed with their measured shrunken log2 fold change values.
test system: Escherichia coli TOP10; test: shrunken log2 fold change of peptide-encoding DNA abundance (4.5 h post-induction vs induction); higher = less antimicrobial activity (less host growth inhibition); conditions: time post-induction: 4.5 h; library: site-saturation at positions 5, 18, 19, 20;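 note: peptides expressed intracellularly from a pBAD plasmid library in pooled LB shake-flask culture, induced with 0.3% L-arabinose, DNA abundance read by NGS, three biological replicates, DESeq2 with apeglm shrinkage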
Number, no unit, nothing else.

Some solved entries appear below for comparison.
seq_text | assay_target | shrunken log2 fold change
RRIRCRPPRLPRPRPRPWPMPRP | Escherichia coli TOP10 | 0.168
RRIRERPPRLPRPRPRPNTTPRP | Escherichia coli TOP10 | 0.123
RRIRWRPPRLPRPRPRPHSMPRP | Escherichia coli TOP10 | -0.216
RRIRCRPPRLPRPRPRPMQMPRP | Escherichia coli TOP10 | 0.0279
RRIRARPPRLPRPRPRPYRAPRP | Escherichia coli TOP10 | -0.141

Query :: Report the value of shrunken log2 fold change obtained on Escherichia coli TOP10 for `RRIRNRPPRLPRPRPRPHSHPRP` .
Result :: -0.472

Query :: Report the value of shrunken log2 fold change obtained on Escherichia coli TOP10 for `RRIRGRPPRLPRPRPRPPFWPRP` .
Result :: 1.09

Query :: Report the value of shrunken log2 fold change obtained on Escherichia coli TOP10 for `RRIRVRPPRLPRPRPRPRMDPRP` .
Result :: -0.371
